This collection of values is drawn from PubChem BioAssay (Tox21).

experiment: qHTS assay to identify small molecule agonists of the sonic hedgehog signaling (Shh) pathway - cell viability counter screen (AID 1259366); details: NIH/3T3 Gli1-Luc viability, CellTiter-Fluor, 24 h; series mostly up to 92.4 µM; note: nearly all actives have a fitted effect of over 50% in size
Inconclusive results are not listed. The source made the active and inactive calls. Calls come from the whole dose curve; as a rule, active = well fitted cell-killing curve with a large enough effect in the repeat runs; inconclusive = weak or mixed curves, or effect the other way; inactive = flat fitted curve, though single readings scatter.
Your response should consist of one outcome taken from active, inactive

Ask | // param item: CCN(CC)C(=S)[S-].CCN(CC)C(=S)[S-].[Zn+2] ; yields the recorded call
Reply | active

Ask | Lookup COC(=O)N(C(=O)N1COC2(C(=O)OC)Cc3cc(Cl)ccc3C2=N1)c1ccc(OC(F)(F)F)cc1 (stereo not drawn)
Reply | inactive

Ask | Also need N#CC(Cl)Cl , thanks.
Reply | inactive
